Cited source for all entries: patent US10716769B2

Reported Inhibitory rate % values for the following compounds.
# Test system: human gastric cancer cell line (MCG804)
# test_description: MTT in vitro tumor cell inhibition
# Type: cell-based
# condition: MCG804, 10^−4 g/ml, 3 days
Could you give me the number in %? Just the number is fine.

O=C(c1ccc(O)cc1O)c1ccc(O)cc1O [2,4,2′,4′-tetrahydroxybenzophenone]: 38.95

The record that follows has no Inhibitory rate % shown yet.
Task: Entry under review: O=C(c1ccc(O)c(O)c1)c1cc(O)c(O)c(O)c1O [2,3,3′,4,4′,5-hexahydroxybenzophenone] . Reported Inhibitory rate %?
Output: 71.91

---

# target_under_test: HIV-1 integrase (Human immunodeficiency virus type 1 group M subtype B, UniProt P04585)
Reported pIC50 values for the following molecules.
// pIC50: -log10(molar conc.)

Task: Entry under review: O=C(c1ccccc1O)c1cccc(O)c1O [2,2′3′-trihydroxybenzophenone] . Reported pIC50?
Output: 4.34

Task: Entry under review: O=C(c1ccc(O)cc1O)c1ccc(O)cc1O [2,4,2′,4′-tetrahydroxybenzophenone] . Reported pIC50?
Output: 4.34

Task: Entry under review: O=C(O)c1cc(O)c(O)c(O)c1 [3,4,5-trihydroxybenzoic acid, reference compound] . Reported pIC50?
Output: 3.23

Task: Entry under review: O=C(c1ccccc1)c1ccc(O)c(O)c1O [2,3,4-trihydroxybenzophenone] . Reported pIC50?
Output: 4.28
